Cited source for all entries: PubChem BioAssay (NCI)

experiment_summary: NCI Yeast Anticancer Drug Screen. Data for the mec2-1 strain (AID 157)
recorded_conditions: S. cerevisiae mec2-1 strain, at 50.0 µM
This is part of a sample that, as a whole, favours compounds with a hit. Of some 79,000 tested, about 15% had one in any assay. The source made the active and inactive calls. Cut-off read from the data, not from the text of the source: active = growth inhibition above about 70%; inactive = the rest.
Outcome field: choose from class 1 (active), class 0 (inactive)

{"compound": "CCN(CC)CCOc1c(I)cc(I)cc1I", "assigned_category": "class 1"}
{"compound": "Oc1ccc2cc(Br)ccc2c1O", "assigned_category": "class 1"}
{"compound": "CCCCCCCCCCCC[N+](C)(CCS(=O)(=O)[O-])Cc1ccccc1 (stereo not drawn)", "assigned_category": "class 1"}
{"compound": "Cc1cc(O)c(/C=N/C(=S)Nc2ccc(S(N)(=O)=O)cc2)c(=O)o1", "assigned_category": "class 0"}
{"compound": "CC1CCN(CCOC(=O)C(c2ccccc2)C2C=CCCC2)C1 (stereo not drawn)", "assigned_category": "class 0"}

Lookup: Per the assay record, what outcome was assigned to COc1cc2c(cc1C(C)C)CCC1C(C)(C#N)CCCC21C (stereo not drawn) ?
Found: class 0

Lookup: Queued: `CC(=O)OCCc1ccc(CCc2ccccc2)cc1`
Found: class 0

Lookup: Queued: `CCOC(=O)C(Cc1cn(S(=O)(=O)c2ccccc2)c2ccccc12)(NC(C)=O)C(=O)OCC`
Found: class 0

Lookup: Queued: COC(=O)/C=C(\NC1CC(OC2C[C@](O)(C(C)=O)Cc3c(O)c4c(c(O)c32)C(=O)c2c(OC)cccc2C4=O)OC(C)C1O)C(=O)OC (stereo partly drawn)
Found: class 1

###

Catalogue of growth inhibition values
experiment_summary: NCI Yeast Anticancer Drug Screen. Data for the sgs1 mgt1 strain (AID 161);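 note: 0% = growth of cultures given vehicle only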
recorded_conditions: S. cerevisiae sgs1 mgt1 strain, at 50.0 µM (retest, dose inferred, filed as 5.0), stronger effect = higher value
About 79,000 compounds went through this panel and 15% of them were active in at least one assay; those are over-represented in the sample as a whole.
Give the value in % but do not write % after it.

Lookup: Which measured growth inhibition value corresponds to `CCCCc1[nH]ccc2c(C)c3nc4ccccc4c3cc12` ?
Found: 96

Lookup: Queued: `O=C1OCC/C1=C1/CCOC1`
Found: 98

Lookup: Queued: `CCCCCCCCCCCCCCNCCN`
Found: 97

Lookup: Queued: `N#Cc1c(Cl)nsc1-c1ccc([N+](=O)[O-])cc1`
Found: 33

Lookup: Queued: `CCCc1cc(-c2ccc(O)c(CCC)c2)ccc1O`
Found: 99

Lookup: Queued: CC(C)(C)C(=O)OC12/C(=N/O)CCCCCC1c1ccccc12 (configuration not stated)
Found: 89

###

experiment_summary: NCI Yeast Anticancer Drug Screen. Data for the rad50 strain (AID 155);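 note: 0% = growth of vehicle-only cultures of the same strain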
recorded_conditions: S. cerevisiae rad50 strain growth inhibition; at 50.0 µM (retest, dose inferred, filed as 5.0)
About 79,000 compounds went through this panel and 15% of them were active in at least one assay; those are over-represented in the sample as a whole. Calls of active or inactive are those of the source. Cut-off read from the data, not from the text of the source: active = growth inhibition above about 70%; inactive = the rest.
Outcome field: choose from active, inactive

Lookup: Per the assay record, what outcome was assigned to `N#C/C(=C/c1ccccc1B(O)O)C(=O)O` ?
Found: inactive

Lookup: Queued: `CCCCCCCCCCCCCCCCCCNCCCCCCCCCCCCCCCC`
Found: inactive

Lookup: Queued: `S=C(Nc1cc(Cl)cc(Cl)c1)SCc1ccccc1`
Found: active

Lookup: Queued: C=CC(c1ccccc1)[C@@]1(OC(C)=O)C(=O)C(=O)OC1C1COC(C)(C)O1 (some centres undefined)
Found: active

Lookup: Queued: `CCc1nc(N)nc(N)c1-c1ccc(NCCc2ccccc2)c([N+](=O)[O-])c1`
Found: inactive

Lookup: Queued: `O=C(N/C(=C\c1ccc(/C=C(\NC(=O)c2ccccc2)c2nc3ccccc3s2)cc1)c1nc2ccccc2s1)c1ccccc1`
Found: inactive

Lookup: Queued: `O=C1NC(=S)S/C1=C\c1cc(Cl)ccc1O`
Found: inactive

Lookup: Queued: `Cc1ccc(S)c(S)c1`
Found: inactive

Lookup: Queued: `CC(=O)C(=C(I)I)c1ccccc1`
Found: active

Lookup: Queued: `C=CCc1cccc(/C=N\N=C(/N)NO)c1O`
Found: inactive

Lookup: Queued: `NC(=O)c1c(Cl)nc2n1CCS2`
Found: inactive
